target: Recombinant full length human OGA enzyme (Homo sapiens (Human), UniProt O60502); experiment: OGA Enzyme Inhibition Biochemical Assay; settings: 1 nM OGA, 100 μM 4-MUGlcNAc, pH 6.4
Sequence (O60502 whole entry): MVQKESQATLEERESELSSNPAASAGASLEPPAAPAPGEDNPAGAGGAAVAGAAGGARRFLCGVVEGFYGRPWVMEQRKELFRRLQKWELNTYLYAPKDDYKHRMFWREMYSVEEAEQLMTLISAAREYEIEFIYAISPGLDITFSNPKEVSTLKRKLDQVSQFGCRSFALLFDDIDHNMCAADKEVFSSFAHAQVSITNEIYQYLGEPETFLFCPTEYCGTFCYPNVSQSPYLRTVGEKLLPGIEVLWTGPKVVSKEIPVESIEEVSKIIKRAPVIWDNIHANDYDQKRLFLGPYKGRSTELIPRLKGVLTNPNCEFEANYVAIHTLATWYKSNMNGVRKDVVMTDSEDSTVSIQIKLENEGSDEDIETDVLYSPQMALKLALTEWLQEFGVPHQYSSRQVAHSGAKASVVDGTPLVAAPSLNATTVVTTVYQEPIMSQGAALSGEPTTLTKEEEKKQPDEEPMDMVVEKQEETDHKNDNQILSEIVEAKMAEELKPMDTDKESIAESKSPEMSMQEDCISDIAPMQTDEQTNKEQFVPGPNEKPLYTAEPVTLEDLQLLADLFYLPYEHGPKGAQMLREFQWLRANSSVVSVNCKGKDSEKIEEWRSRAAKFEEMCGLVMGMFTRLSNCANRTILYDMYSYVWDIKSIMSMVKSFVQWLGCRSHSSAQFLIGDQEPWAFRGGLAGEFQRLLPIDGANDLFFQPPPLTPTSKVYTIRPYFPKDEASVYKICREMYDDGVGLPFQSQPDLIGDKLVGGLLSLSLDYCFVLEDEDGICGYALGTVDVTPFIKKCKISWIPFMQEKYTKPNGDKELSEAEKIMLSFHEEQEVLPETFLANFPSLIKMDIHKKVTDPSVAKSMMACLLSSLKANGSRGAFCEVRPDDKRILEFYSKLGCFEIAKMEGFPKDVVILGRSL
measurementKind: IC50

Before answering, review these 3 worked examples.
1. CC(=O)Nc1nc(F)c(CN2CC[C@H](Oc3cc(C)nc(C)c3)C2)s1    150 nM
2. COc1cc(O[C@@H]2CCN(Cc3sc(NC(C)=O)nc3F)C2)ncn1    16 nM
3. CC(=O)Nc1ncc(CN2C[C@H](Oc3ccc(C#N)cn3)C[C@@H]2C)s1    < 1 nM

Record CC(=O)Nc1ncc(CN2C[C@H](Oc3cc(F)ncn3)C[C@@H]2C)s1 , field IC50: 2.4 nM

Record COc1ccc(O[C@@H]2C[C@H](C)N(Cc3sc(NC(C)=O)nc3F)C2)cn1 , field IC50: < 1 nM
